# Tested on: 5-HTP accumulation in the limbic forebrain (5-HT synthesis rate)
# Assay name: 5-HTP accumulation in limbic forebrain of reserpine-pretreated rats
# Assay type: in vivo, rat
# Experimental setup: Rattus norvegicus, sc, 0.5 h, read-out: 5-HTP ED50 Limbic (I/P symbol)
Result type: log10(ED50) (log10 of the value in µmol/kg)
Recall that a logarithmic scale is used here: each number is log10 of ED50 in µmol/kg.

Here CCCN(CCC)C1CCc2c(ccc3[nH]cc(C=O)c23)C1 (single isomer, unassigned; (+)) [8(+)] was tested on 5-HTP accumulation in the limbic forebrain (5-HT synthesis rate), and its log10(ED50) came to -0.70

Observed log10(ED50), 5-HTP accumulation in the limbic forebrain (5-HT synthesis rate), CCCN(CCC)C1CCc2cc3[nH]ccc3cc2C1 (stereo not shown) [Example 7] : 1.70

Tested on 5-HTP accumulation in the limbic forebrain (5-HT synthesis rate): CCCN(CCC)C1CCc2c(ccc3[nH]cc(C=O)c23)C1 (stereo not shown) [Example 8] . Observed log10(ED50): 1.70

Param item: CCCN(CCC)C1CCc2cc3[nH]cc(C=O)c3cc2C1 (stereo not shown) [Example 9] ; param system: 5-HTP accumulation in the limbic forebrain (5-HT synthesis rate); output log10(ED50): 1.10

Reported log10(ED50) (5-HTP accumulation in the limbic forebrain (5-HT synthesis rate)) for entry CCCN(CCC)C1CCc2c(ccc3[nH]cc(C#N)c23)C1 (stereo not shown) [Example 10] is 0.49

Batch request: log10(ED50) for each of the following molecules.
1. CCCN(CCC)C1CCc2c(ccc3ccoc23)C1 (stereo not shown) [Example 17]
2. CCCN(CCC)[C@H]1CCc2c(ccc3[nH]cc(C=O)c23)[C@H]1C (relative stereo) [Example 16]

Result:
1.52
1.70

---

# Test system: dopamine D2 receptor (Rattus norvegicus, UniProt P61169)
# Construct: from tissue
# Sequence (P61169 whole entry): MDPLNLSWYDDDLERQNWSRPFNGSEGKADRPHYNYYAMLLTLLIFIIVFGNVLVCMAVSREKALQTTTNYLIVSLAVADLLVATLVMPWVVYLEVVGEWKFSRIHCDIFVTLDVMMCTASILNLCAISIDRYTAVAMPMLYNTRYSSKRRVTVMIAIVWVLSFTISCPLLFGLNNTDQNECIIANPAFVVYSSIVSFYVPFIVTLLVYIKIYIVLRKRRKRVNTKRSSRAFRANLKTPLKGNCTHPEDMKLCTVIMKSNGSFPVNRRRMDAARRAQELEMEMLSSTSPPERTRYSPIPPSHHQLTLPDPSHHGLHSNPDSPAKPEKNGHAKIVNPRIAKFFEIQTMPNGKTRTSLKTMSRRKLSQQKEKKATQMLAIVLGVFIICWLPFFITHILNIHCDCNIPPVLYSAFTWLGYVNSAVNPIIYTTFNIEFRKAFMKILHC
# Assay name: in vitro affinity for brain dopamine D2 receptor sites, Spiperone
# Format: binding
# Experimental setup: non-pretreated, read-out: In vitro binding Ki D2-spip.
pKi: −log10 of the molar value.
Threshold rule: pKi greater than or equal to 6 is met; below that, not met.

Example entries begin here.
Ask: Does the compound CCCN(CCC)C1CCc2c(ccc3cc[nH]c23)C1 (centres unmarked) [Example 2] have recorded pKi that is 6 or more?
Result: met

Ask: Does pKi meet or surpass 6 for CCCN(CCC)C1CCc2cc3[nH]ccc3cc2C1 (centres unmarked) [Example 7] ?
Result: not met

New cases:
Ask: Entry CCCN(CCC)C1CCc2c(ccc3[nH]ccc23)C1 (single isomer, unassigned; (-)) [7A(-), reference compound] : is its pKi no less than 6?
Result: met

Ask: Dear colleague, could you confirm whether CCCN(CCC)C1COc2c(ccc3cc[nH]c23)C1 (centres unmarked) [Example 5] has pKi at or above 6?
Result: met

Ask: # bool: pKi of CCCN(CCC)C1CCc2c(ccc3c2NC(=O)C3)C1 (centres unmarked) [Example 4] >= 6
Result: not met

---

Please provide measured Ki for the entries that follow.
# Test system: dopamine D2 receptor (Rattus norvegicus)
# Construct: from tissue
# Assay name: in vitro affinity for brain dopamine D2 receptor sites, Spiperone
# Format: binding
# Experimental setup: In vitro binding Ki D2-spip., non-pretreated

Reference set, count: 2
The reported Ki of the compound CCCN(CCC)C1CCc2c(ccc3[nH]ccc23)C1 (stereo not drawn) [Example 7A, reference compound] was 0.05 µM

Ki reading for CCCN(CCC)C1CCc2c(ccc3[nH]ccc23)C1 (single isomer, unassigned; (+)) [7A(+), reference compound] : 0.035 µM

Now look at this one.
The compound identified as CCCN(CCC)C1CCc2c(ccc3[nH]cc(C=O)c23)C1 (stereo not drawn) registered its Ki at 0.016 µM
